- target_entity: T1, human serum albumin (human, UniProt P02768 25-609)
- T1 construct: also called HSA
- test_name: SPR (Biacore 3000), HSA on chip, Fc-ABDEG fusion, pH 5.5
quantity_name: R0 pH 5.5 (RU)
Give the value in RU but do not write RU after it.

Query: Requested read-out: R0 pH 5.5. Entry: 11C03 CDR2-V10 fused at the C-terminus of Fc-ABDEG (Fc fusion, not shown: a dimerising Fc or GST; small tags and cut ends) QLQVVESGGGLVQAGGSLRLSCAASERTFVAYPMGWFRQAPEKEREFVAGISWFAGATADYADSVEGRFTISRDNAKNTAYLQMNNLKPEDTAVYYCAISHQLPGGRPGRDMDSYSYWGHGTQVTVSS
Response: 136

Query: Requested read-out: R0 pH 5.5. Entry: 11C03 CDR2-V2 fused at the C-terminus of Fc-ABDEG (Fc fusion, not shown: a dimerising Fc or GST; small tags and cut ends) QLQVVESGGGLVQAGGSLRLSCAASERTFVAYPMGWFRQAPEKEREFVAGASWFAGATTDYADSVEGRFTISRDNAKNTAYLQMNNLKPEDTAVYYCAISHQLPGGRPGRDMDSYSYWGHGTQVTVSS
Response: 15.1

Query: Requested read-out: R0 pH 5.5. Entry: 11C03 parental fused at the C-terminus of Fc-ABDEG (Fc fusion, not shown: a dimerising Fc or GST; small tags and cut ends) QLQVVESGGGLVQAGGSLRLSCAASERTFVAYPMGWFRQAPEKEREFVAGISWFAGATTDYADSVEGRFTISRDNAKNTAYLQMNNLKPEDTAVYYCAISHQLPGGRPGRDMDSYSYWGHGTQVTVSS
Response: 229

Query: Requested read-out: R0 pH 5.5. Entry: 11C03 CDR1-V2 fused at the C-terminus of Fc-ABDEG (Fc fusion, not shown: a dimerising Fc or GST; small tags and cut ends) QLQVVESGGGLVQAGGSLRLSCAASERTFVAAPMGWFRQAPEKEREFVAGISWFAGATTDYADSVEGRFTISRDNAKNTAYLQMNNLKPEDTAVYYCAISHQLPGGRPGRDMDSYSYWGHGTQVTVSS
Response: 108

Query: Requested read-out: R0 pH 5.5. Entry: 11C03 CDR2-V12 fused at the C-terminus of Fc-ABDEG (Fc fusion, not shown: a dimerising Fc or GST; small tags and cut ends) QLQVVESGGGLVQAGGSLRLSCAASERTFVAYPMGWFRQAPEKEREFVAGISWFAGATTDAADSVEGRFTISRDNAKNTAYLQMNNLKPEDTAVYYCAISHQLPGGRPGRDMDSYSYWGHGTQVTVSS
Response: 38.7

Query: Requested read-out: R0 pH 5.5. Entry: 11C03 CDR2-V5 fused at the C-terminus of Fc-ABDEG (Fc fusion, not shown: a dimerising Fc or GST; small tags and cut ends) QLQVVESGGGLVQAGGSLRLSCAASERTFVAYPMGWFRQAPEKEREFVAGISWAAGATTDYADSVEGRFTISRDNAKNTAYLQMNNLKPEDTAVYYCAISHQLPGGRPGRDMDSYSYWGHGTQVTVSS
Response: 12.3
